Experimental details: MTS cell viability assay, MRC-5 cells
Format: cell-based, human
Assay conditions: human, MRC-5 lung fibroblast cells
Quantity kind: viability at 24 h, 50 μg/mL (%)
Output spec: scalar in %, unitless text.

// COc1ccc(-c2cc(=O)c3c(O)cc(O[C@@H]4O[C@H](CO[C@@H]5O[C@@H](C)[C@H](O)[C@@H](O)[C@H]5O)[C@@H](O)[C@H](O)[C@H]4O)cc3o2)cc1O [Diosmin, diosmin] : viability at 24 h, 50 μg/mL value = 80.9
